# Test system: SW 1271 complex tumor spheroid viability
# TEST METHOD NOTES: Anticancer human tumor SW 1271 cell line growth inhibition; active means viability on the fitted dose curve at most 10% of control; inactive means the rest;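 further: spheroids exposed to agents for seven days before readout; percent of DMSO vehicle control luminescence so 100% = vehicle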
# CONDITION INFO: second compound 31.6 µM; first compound 0.316 µM
Please reply with one of these outcomes: true (1) = active, false (0) = inactive

For COc1cc(C)[nH]c(=O)c1CN1CCc2c(Cl)cc(C(OC)C3COC3)c(Cl)c2C1=O (stereo unspecified) + Cn1nnc2c(C(N)=O)ncn2c1=O , what call appears in the results of this test?
false (0)

For Cc1cc(C)c(CNC(=O)c2cc(-c3ccc(CN4CCOCC4)cc3)cc3c2cnn3C2CCCC2)c(=O)[nH]1 + Cn1nnc2c(C(N)=O)ncn2c1=O , what call appears in the results of this test?
false (0)

For CC1COCCN1c1cc(-c2ccnn2C)c2ccnc(-c3ccn[nH]3)c2n1 (stereo unspecified) + Cn1nnc2c(C(N)=O)ncn2c1=O , what call appears in the results of this test?
true (1)

For [2H]c1nc(C)nc([2H])c1-c1cc(NC[C@@H](C)c2cccc3c(C(=O)NC)ccnc23)ncn1 + Cn1nnc2c(C(N)=O)ncn2c1=O , what call appears in the results of this test?
false (0)

For CC(C)n1c(=O)n(C)c2cnc3cc(F)c(-c4ccc(OCCCN5CCCCC5)nc4)cc3c21 + Cn1nnc2c(C(N)=O)ncn2c1=O , what call appears in the results of this test?
false (0)

For COc1ccc([C@@H](O)c2cc(-c3ncnc4cc(N5CCOCC5)ccc34)c(F)cc2Cl)nn1 + Cn1nnc2c(C(N)=O)ncn2c1=O , what call appears in the results of this test?
false (0)
